B1: library; numbered along this chain (parent)
chain: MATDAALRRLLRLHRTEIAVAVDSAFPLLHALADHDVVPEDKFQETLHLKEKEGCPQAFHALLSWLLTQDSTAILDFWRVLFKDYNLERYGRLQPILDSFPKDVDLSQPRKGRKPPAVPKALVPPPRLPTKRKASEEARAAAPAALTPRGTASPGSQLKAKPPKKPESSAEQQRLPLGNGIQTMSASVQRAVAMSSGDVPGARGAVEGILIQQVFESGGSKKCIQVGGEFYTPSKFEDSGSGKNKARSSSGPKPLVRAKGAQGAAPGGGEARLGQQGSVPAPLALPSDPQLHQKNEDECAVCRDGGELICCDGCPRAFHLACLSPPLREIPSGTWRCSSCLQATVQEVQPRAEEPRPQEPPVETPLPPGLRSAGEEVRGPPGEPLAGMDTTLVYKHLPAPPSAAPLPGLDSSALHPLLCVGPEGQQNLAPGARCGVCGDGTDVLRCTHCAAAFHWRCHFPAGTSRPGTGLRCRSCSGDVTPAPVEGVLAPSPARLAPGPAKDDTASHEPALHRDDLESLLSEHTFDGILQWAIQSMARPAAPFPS

variants of: B1; test: AIRE transcriptional activation functional score (insulin promoter-GFP; nonsense median 0, synonymous median 1) (normalised score); higher = higher AIRE activity (more reporter activation); conditions: with insulin promoter-GFP reporter in HEK293
Threshold check on AIRE transcriptional activation functional score: at or above 1 gives condition met, strictly below gives condition not met.

Please indicate if the recorded AIRE transcriptional activation functional score for S168K meets or exceeds 1.
condition met

Please indicate if the recorded AIRE transcriptional activation functional score for G240S meets or exceeds 1.
condition met

Please indicate if the recorded AIRE transcriptional activation functional score for Q346G meets or exceeds 1.
condition met

Please indicate if the recorded AIRE transcriptional activation functional score for P315T meets or exceeds 1.
condition not met

Please indicate if the recorded AIRE transcriptional activation functional score for L366H meets or exceeds 1.
condition met

Please indicate if the recorded AIRE transcriptional activation functional score for E347R meets or exceeds 1.
condition met

Please indicate if the recorded AIRE transcriptional activation functional score for E167S meets or exceeds 1.
condition not met

Please indicate if the recorded AIRE transcriptional activation functional score for L146T meets or exceeds 1.
condition met

Please indicate if the recorded AIRE transcriptional activation functional score for P430N meets or exceeds 1.
condition met

Please indicate if the recorded AIRE transcriptional activation functional score for G197M meets or exceeds 1.
condition not met

Please indicate if the recorded AIRE transcriptional activation functional score for T480Q meets or exceeds 1.
condition not met

Please indicate if the recorded AIRE transcriptional activation functional score for A202G meets or exceeds 1.
condition not met

Please indicate if the recorded AIRE transcriptional activation functional score for A191L meets or exceeds 1.
condition not met

Please indicate if the recorded AIRE transcriptional activation functional score for S339D meets or exceeds 1.
condition not met

Please indicate if the recorded AIRE transcriptional activation functional score for D515S meets or exceeds 1.
condition not met

Please indicate if the recorded AIRE transcriptional activation functional score for G277T meets or exceeds 1.
condition not met

Please indicate if the recorded AIRE transcriptional activation functional score for N86Q meets or exceeds 1.
condition not met

Please indicate if the recorded AIRE transcriptional activation functional score for C419W meets or exceeds 1.
condition met

Please indicate if the recorded AIRE transcriptional activation functional score for R316K meets or exceeds 1.
condition met

Please indicate if the recorded AIRE transcriptional activation functional score for D502L meets or exceeds 1.
condition not met

Please indicate if the recorded AIRE transcriptional activation functional score for R336V meets or exceeds 1.
condition not met
